Tested on: LG0703-F498-PDC complex spheroid growth;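 note: luminescence taken as a proxy for viable cell amount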
Experiment: Anticancer human tumor LG0703-F498-PDC patient-derived lung adenocarcinoma cell line growth inhibition [AhR]; active = viability on the fitted dose curve at most 10% of control; inactive = the rest
Details: second compound 10 µM; first compound 3.16 µM
From the text: Multicellular complex tumor spheroid response to aryl hydrocarbon receptor antagonists in combination with a variety of drugs and investigational agents in selected tumor cell lines […] Compounds. […] If the clinical Cmax for an agent had not been determined, the highest concentration tested was 10 microM (Table 1). […]
Output constraint: value belongs to active, inactive

Solved entries:
Would you mind telling me which call this test gave COc1cccc2c1C(=O)c1c(O)c3c(c(O)c1C2=O)CC(O)(C(=O)CO)CC3OC1CC(N)C(O)C(C)O1 (stereo not drawn) + CC(CO)NC(=O)c1cc(-c2ccc(Cl)cc2)nn(-c2cnn(C)c2)c1=O ?
active

Would you mind telling me which call this test gave COc1cc(Nc2ncc3c(n2)-c2ccc(Cl)cc2C(c2c(F)cccc2OC)=NC3)ccc1C(=O)O + Cc1ccccc1N=Nc1ccc(NC(=O)c2ccnn2C)c(C)c1 ?
inactive

We next turn to a different compound, shown below.
Would you mind telling me which call this test gave Nc1ccccc1NC(=O)c1ccc(CNC(=O)OCc2cccnc2)cc1 + Cc1ccccc1N=Nc1ccc(NC(=O)c2ccnn2C)c(C)c1 ?
inactive

Numbers sourced from PubChem BioAssay AID1919013.
